This collection of values is drawn from ChEMBL document CHEMBL1201862.

system: HCT-15
observed property: GI50 (µM)
One number for each entry, in µM.

# count of solved cases: 2
>  <compound>
CN(C)/C=C1\CCc2ccc([N+](=O)[O-])cc2C1=O

>  <unit annotation>
µM

>  <GI50>
44

$$$$
>  <compound>
Clc1ccc2c(NC3CCC(N4CCCCC4)CC3)ccnc2c1 (configuration not stated)

>  <unit annotation>
µM

>  <GI50>
27.4

$$$$

Give GI50 for each of the items listed below.
1. O=C(NCCN1CCCC1)c1cn2c(ccc3sc4ccccc4c(=O)c32)n1
2. CC1(C)CCOC(Sc2ccccc2)C1 (configuration not stated)
3. COC(=O)/C=C1\C(=O)C=C2[C@@H]3C[C@H]4C[C@H](CC[C@@]4(C)N21)C3(C)NC(C)=O (some centres not stated)

Found:
10.9
50.6
11.5

Please give GI50 for each item listed below.
1. COc1cc(/C=C2\NC(=O)N(/C=C3\C(=O)Oc4ccccc4C3=O)C2=O)ccc1O
2. COC(=O)C1=CC2OC1(C)C1(CC1)C2=O (configuration not stated)
3. CC1=C(SCc2ccccc2)C(=O)c2ccccc2C1=O
4. CC1Oc2cc3c(-c4c(O)cc(O)c5c(O)c6c(cc45)OC(C)C(C)C6=O)c(O)cc(O)c3c(O)c2C(=O)C1C (configuration not stated)
5. CN1C(=O)C23CC4=CC=CC(O)C4N2C(=O)C1(CO)SS3 (configuration not stated)
6. C=C1C(=O)O[C@@H]2C[C@@H](C)[C@@H]3C=CC(=O)[C@@]3(C)[C@@H](OC(=O)CC(=O)O[C@H]3[C@@H]4C(=C)C(=O)O[C@@H]4C[C@@H](C)[C@@H]4C=CC(=O)[C@]43C)[C@H]12

Found:
[39.3, 15.9, 18.5, 0.0474, 0.0845, 0.0309]

For every item in the list below, what is its measured GI50?
1. COc1cc(C2c3cc4c(cc3[C@@H](NC3CCN(Cc5ccccc5)CC3)C3COC(=O)[C@H]23)OCO4)cc(OC)c1O (some centres not stated)
2. CN(C)C[C@H]1CC[C@@H](CN(C)C)C1=O

Found:
0.132
4.65
